Recorded values, source patent US20170066831A1.

Biological target: T1, human ST2L extracellular domain with C-terminal His6 tag (human, UniProt Q01638 19-328)
T1 construct: also called huST2L-ECD; ST2L-ECD
T1 sequence: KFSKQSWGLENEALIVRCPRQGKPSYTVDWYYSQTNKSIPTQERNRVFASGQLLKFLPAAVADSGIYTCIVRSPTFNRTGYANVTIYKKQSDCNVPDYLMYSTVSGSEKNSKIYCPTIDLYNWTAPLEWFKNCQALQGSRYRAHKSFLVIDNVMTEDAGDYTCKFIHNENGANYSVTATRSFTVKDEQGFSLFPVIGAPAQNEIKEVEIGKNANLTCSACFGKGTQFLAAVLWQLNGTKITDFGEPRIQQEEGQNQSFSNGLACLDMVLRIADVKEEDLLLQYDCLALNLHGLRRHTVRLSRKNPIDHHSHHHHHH
Test: SPR, mAb captured, ST2L-ECD in solution
measured_quantity: kon (M⁻¹ s⁻¹)
A number alone suffices; assume M⁻¹ s⁻¹.

Sample records with kon:
STLM219 (antibody, V domains shown, frameworks VH3-23 / Vk-L6) VH: EVQLLESGGGLVQPGGSLRLSCAASGFTFSGYDMFWVRQAPGKGLEWVSDIGGEGGSTNYADSVKGRFTISRDNSKNTLYLQMNSLRAEDTAVYYCARDPWSTEGSFFVLDYWGQGTLVTVSS VL: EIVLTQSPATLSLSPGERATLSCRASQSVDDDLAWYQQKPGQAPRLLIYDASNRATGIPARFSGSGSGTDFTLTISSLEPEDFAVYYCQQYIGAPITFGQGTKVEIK :: 7.54e+06
STLM209 (antibody, V domains shown, frameworks VH3-23 / Vk-L6) VH: EVQLLESGGGLVQPGGSLRLSCAASGFTFSIYDMIWVRQAPGKGLEWVSTIRGEGGGTSYADSVKGRFTISRDNSKNTLYLQMNSLRAEDTAVYYCARDPWSTEGSFFVLDYWGQGTLVTVSS VL: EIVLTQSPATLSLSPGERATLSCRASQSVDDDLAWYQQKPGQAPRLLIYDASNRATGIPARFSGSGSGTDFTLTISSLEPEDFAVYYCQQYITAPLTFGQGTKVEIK :: 6.59e+06
STLM208 (antibody, V domains shown, frameworks VH3-23 / Vk-L6) VH: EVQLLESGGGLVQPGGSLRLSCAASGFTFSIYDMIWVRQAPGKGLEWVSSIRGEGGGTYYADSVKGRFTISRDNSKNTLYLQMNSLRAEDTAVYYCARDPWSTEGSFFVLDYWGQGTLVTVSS VL: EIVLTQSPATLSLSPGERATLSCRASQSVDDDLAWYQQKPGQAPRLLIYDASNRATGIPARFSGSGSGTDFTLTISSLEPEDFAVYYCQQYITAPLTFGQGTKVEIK :: 5.97e+06
STLM229 (antibody, V domains shown, VH STLH201 + VL STLL275) VH: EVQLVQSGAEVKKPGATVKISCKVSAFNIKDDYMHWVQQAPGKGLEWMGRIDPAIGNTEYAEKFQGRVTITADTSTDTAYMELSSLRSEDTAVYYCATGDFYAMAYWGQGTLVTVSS VL: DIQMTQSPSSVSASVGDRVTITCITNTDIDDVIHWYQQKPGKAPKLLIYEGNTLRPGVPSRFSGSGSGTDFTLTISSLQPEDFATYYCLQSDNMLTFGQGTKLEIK :: 1.29e+07

Quick one: give measured kon for STLM231 (antibody, V domains shown, VH STLH201 + VL STLL273; also called S1LM231) VH: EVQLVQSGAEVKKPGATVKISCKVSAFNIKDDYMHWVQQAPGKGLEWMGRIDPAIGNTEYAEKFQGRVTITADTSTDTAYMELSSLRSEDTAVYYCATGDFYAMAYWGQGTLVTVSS VL: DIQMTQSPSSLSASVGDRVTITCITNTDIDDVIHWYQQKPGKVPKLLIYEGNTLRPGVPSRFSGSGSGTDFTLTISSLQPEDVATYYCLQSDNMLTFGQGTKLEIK 1.97e+07
